assay: NCI Yeast Anticancer Drug Screen. Data for the mlh1 rad18 strain (AID 175); conditions: S. cerevisiae mlh1 rad18 strain growth inhibition; at 50.0 µM (retest, dose inferred, filed as 5.0)
The panel holds about 79,000 compounds, 15% with a hit somewhere; the sample as a whole holds those more often. The source made the active and inactive calls. Rule as the data show it: active = growth inhibition above about 70%; inactive = the rest.
Thanks in advance; please answer with one of these: yes for active, no for inactive

Per the records of this test, what outcome belongs to CCCCCCCCNC(=O)C(Cl)Cl ?
no

Per the records of this test, what outcome belongs to C/C(=N/NC(=S)N1CCCC1)c1cccc(/C(C)=N\NC(=S)N2CCCC2)n1 ?
no

Per the records of this test, what outcome belongs to Cn1c(CN(Cc2nc3ccccc3n2C)Cc2nc3ccccc3n2C)nc2ccccc21 ?
yes

Per the records of this test, what outcome belongs to CCN(CC)c1ccc(/C=C2/C[N+](C)(C)C/C(=C/c3ccc(N(CC)CC)cc3)C2=O)cc1 ?
yes

Per the records of this test, what outcome belongs to C/C(=N\NC(=O)C[n+]1ccccc1)c1sc(-c2nc(C)c(/C(C)=N/NC(=O)C[n+]3ccccc3)s2)nc1C ?
yes

Per the records of this test, what outcome belongs to CCCCCCSc1nn(CCC#N)c(=O)[nH]c1=O ?
no

Per the records of this test, what outcome belongs to c1ccc(Oc2ccc(Nc3c4ccccc4nc4ccccc34)cc2)cc1 ?
yes

Per the records of this test, what outcome belongs to COc1cccc(NC(=S)NC(Cc2ccccc2)c2ccccc2)c1 (configuration not stated) ?
yes

Per the records of this test, what outcome belongs to CC(=O)CCCOC(C)=O ?
yes

Per the records of this test, what outcome belongs to Oc1ccc2ccccc2c1CNc1ccc2ccccc2c1 ?
no

Per the records of this test, what outcome belongs to N=C(N)c1cccc(-c2ccc(-c3ccccc3)o2)c1 ?
yes

Per the records of this test, what outcome belongs to C=CCOc1ccc(/C=N/NC(N)=S)cc1 ?
yes

----------
assay: NCI Yeast Anticancer Drug Screen. Data for the bub3 strain (AID 167); conditions: S. cerevisiae bub3 mutant strain, at 5.0 µM (retest, dose inferred, filed as 0.5), stronger effect = higher value
This is part of a sample that, as a whole, favours compounds with a hit. Of some 79,000 tested, about 15% had one in any assay.
Exercise: state measured growth inhibition for each of the compounds provided.
Could you give me the number in %? Just the number is fine.

Requested field: growth inhibition. Item: COc1ccc2nc3cc(Cl)ccc3c(NCCCN(Cc3cc(OC)c(OC)c(OC)c3)Cc3cc(OC)c(OC)c(OC)c3)c2c1
37

Requested field: growth inhibition. Item: NN=C(CC(O)(C(F)(F)Cl)C(F)(F)Cl)CC(O)(C(F)(F)Cl)C(F)(F)Cl
6

Requested field: growth inhibition. Item: CC(O[Si](C)(C)C(C)(C)C)C(=O)Sc1ccccn1 (stereo not drawn)
-6

Requested field: growth inhibition. Item: CCc1ccc(CC(=O)O)c2ccc3c(C)ccc(C)c3c12
11

Requested field: growth inhibition. Item: Cc1c(N)nc(C2CC(=O)N2CC(N)C(N)=O)nc1C(=O)NC(C(=O)NC(C)C(O)C(C)C(=O)NC(C(=O)NCCc1nc(-c2nc(C(=O)NCCCNC3CCCC3)cs2)cs1)C(C)O)C(OC1OC(CO)C(O)C(O)C1OC1OC(CO)C(O)C(OC(N)=O)C1O)c1cnc[nH]1 (stereo not drawn)
97

Requested field: growth inhibition. Item: O=c1oc2c/c(=C\c3ccccc3)c(=O)c3cccc1c3-2
-7

Requested field: growth inhibition. Item: CCCC#CC(O)(C(=O)OC1CCN(C)CC1)C1CCCCC1 (stereo not drawn)
23

Requested field: growth inhibition. Item: CC(COC(=O)C(c1ccccc1)C1C=CCCC1)CN1CCCC1 (stereo not drawn)
0
